- Tested on: U87MG
- method description: Biomarker study proliferation (CellTiter-Glo)
- Assay type: cell-based
- condition summary: Homo sapiens, U-87 MG, 168 h, read-out: Anti-proliferation effect IC50
measurement label: IC50 (µM)
// note: answer is a bare numeric in µM

Task: Any idea what IC50 was measured for Cc1cc(NC2CCN(C(=O)O[C@H]3CCN(C(=O)/C=C/CN(C)C)C3)CC2)n2ncc(C(C)C)c2n1 [Example 1] ?
Output: 7.36

---

- System: SNU739
- method description: Biomarker study proliferation (CellTiter-Glo)
- Format: cell-based
- condition summary: SNU-739, 168 h, read-out: Anti-proliferation effect IC50
pIC50: −log10 of the molar value.
measurement label: pIC50

Task: GET /values?readout=pIC50&item= Cc1cc(NC2CCN(C(=O)O[C@H]3CCN(C(=O)/C=C/CN(C)C)C3)CC2)n2ncc(C(C)C)c2n1 [Example 1]
Output: < 5.00
